# study.target: T1, human IL-11 (AAH12506.1, Pro22-Leu199) (human, UniProt P20809 22-199)
# T1 construct: The range Pro22-Leu199 counts on AAH12506.1; The Octet runs say only 'human IL-11'; also called hIL-11
# T1 chain: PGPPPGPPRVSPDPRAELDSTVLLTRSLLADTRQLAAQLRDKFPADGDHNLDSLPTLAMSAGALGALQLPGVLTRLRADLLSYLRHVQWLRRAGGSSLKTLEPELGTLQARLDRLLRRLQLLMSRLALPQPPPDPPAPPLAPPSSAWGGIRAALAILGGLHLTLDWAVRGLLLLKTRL
# experimental.details: BLI (Octet), antibody captured, human IL-11 in solution
quantity.name: log10(Kd) (log10 of the value in nM)
Note: values are log10 of Kd expressed in nM.

hz8C8-VHm1 + hz8C8-VLm7-m3 (antibody, human IgG1, kappa, V domains shown, human IgG1 constant regions) VH: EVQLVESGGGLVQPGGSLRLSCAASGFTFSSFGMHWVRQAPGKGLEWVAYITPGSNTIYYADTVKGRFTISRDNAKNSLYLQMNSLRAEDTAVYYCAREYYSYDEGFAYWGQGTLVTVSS VL: EIVLTQSPATLSLSPGERATLSCSVSDLIPSQYLHWYQQKPGQAPRLLIYGASNLASGIPARFSGSGSGTDFTLTISSLEPEDFAVYYCQQGVDVPFTFGQGTKLEIKR; -1.10
hz8C8-VHm1-m1 + hz8C8-VLm7 (antibody, human IgG1, kappa, V domains shown, human IgG1 constant regions) VH: EVQLVESGGGLVQPGGSLRLSCAASGFTFSSYGMHWVRQAPGKGLEWVAYITPGSNTIYYADTVKGRFTISRDNAKNSLYLQMNSLRAEDTAVYYCAREYYSYDEGFAYWGQGTLVTVSS VL: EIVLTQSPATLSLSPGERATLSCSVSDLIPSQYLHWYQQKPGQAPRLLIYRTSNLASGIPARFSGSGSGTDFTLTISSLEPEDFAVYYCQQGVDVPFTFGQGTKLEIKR; -0.90
hz8C8-VHm3 + hz8C8-VL (antibody, human IgG1, kappa, V domains shown, human IgG1 constant regions) VH: EVQLVESGGGLVQPGGSLRLSCAASGFTFSSFGMHWVRQAPGKGLEWVAYITPGSNTTYYADTVKGRFTISRDNAKNSLYLQMNSLRAEDTAVYYCAREYYSYDEGFAYWGQGTLVTVSS VL: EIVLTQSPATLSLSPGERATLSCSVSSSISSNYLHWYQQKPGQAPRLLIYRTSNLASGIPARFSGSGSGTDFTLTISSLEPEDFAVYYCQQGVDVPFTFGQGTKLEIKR; 0.68
hz8C8-VHm1-m13 + hz8C8-VLm7-m2 (antibody, human IgG1, kappa, V domains shown, human IgG1 constant regions) VH: EVQLVESGGGLVQPGGSLRLSCAASGFTFSSFGMHWVRQAPGKGLEWVAYITPGSNTIYYADTVKGRFTISRDNAKNSLYLQMNSLRAEDTAVYYCAREYYSYDEGFASWGQGTLVTVSS VL: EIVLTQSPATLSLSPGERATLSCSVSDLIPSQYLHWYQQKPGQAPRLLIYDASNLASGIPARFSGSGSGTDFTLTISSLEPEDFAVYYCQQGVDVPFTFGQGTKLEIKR; -1.24
hz8C8-VHm1 + hz8C8-VLm1 (antibody, human IgG1, kappa, V domains shown, human IgG1 constant regions) VH: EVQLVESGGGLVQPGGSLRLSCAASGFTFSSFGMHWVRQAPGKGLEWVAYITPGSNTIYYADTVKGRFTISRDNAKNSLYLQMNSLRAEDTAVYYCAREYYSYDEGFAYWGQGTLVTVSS VL: EIVLTQSPATLSLSPGERATLSCSVSSSIPSNYLHWYQQKPGQAPRLLIYRTSNLASGIPARFSGSGSGTDFTLTISSLEPEDFAVYYCQQGVDVPFTFGQGTKLEIKR; -0.75

[ask] Form field: reported log10(Kd) of hz8C8-VHm1-m2 + hz8C8-VLm7 (antibody, human IgG1, kappa, V domains shown, human IgG1 constant regions) VH: EVQLVESGGGLVQPGGSLRLSCAASGFTFSSFGMHWVRQAPGKGLEWVASITPGSNTIYYADTVKGRFTISRDNAKNSLYLQMNSLRAEDTAVYYCAREYYSYDEGFAYWGQGTLVTVSS VL: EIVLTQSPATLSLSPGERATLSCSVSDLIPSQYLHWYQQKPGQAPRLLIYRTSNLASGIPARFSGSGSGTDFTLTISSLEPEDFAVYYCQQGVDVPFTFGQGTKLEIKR
[reply] 0.53

[ask] Query: log10(Kd); subject: hz8C8-VHm1-m9 + hz8C8-VLm7-m2 (antibody, human IgG1, kappa, V domains shown, human IgG1 constant regions) VH: EVQLVESGGGLVQPGGSLRLSCAASGFTFSSFGMHWVRQAPGKGLEWMGYITPGSNTIYYADTVKGRFTISRDNAKNSLYLQMNSLRAEDTAVYYCAREYYSYDEGFAYWGQGTLVTVSS VL: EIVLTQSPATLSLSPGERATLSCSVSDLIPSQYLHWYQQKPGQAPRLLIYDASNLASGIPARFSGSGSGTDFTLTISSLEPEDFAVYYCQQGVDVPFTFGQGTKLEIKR
[reply] -1.62

[ask] Name the recorded log10(Kd) for hz8C8-VHm1-m11 + hz8C8-VLm7-m2 (antibody, human IgG1, kappa, V domains shown, human IgG1 constant regions) VH: EVQLVESGGGLVQPGGSLRLSCAASGFTFSSFGMHWVRQAPGKGLEWVAYITPGSNTIYYADTVKGRFTISRDNAKNSLYLQMNSLRAEDTAVYYCAREYYSYDEGPAYWGQGTLVTVSS VL: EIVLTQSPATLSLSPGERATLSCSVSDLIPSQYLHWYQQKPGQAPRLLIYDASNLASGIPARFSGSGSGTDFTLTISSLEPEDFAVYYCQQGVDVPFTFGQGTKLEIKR .
[reply] 0.11
